# recordedConditions: human gut metagenome, 24 h, 2 µM; also: call rule not given here
observedProperty: Bacterial Biotransformation

>  <compound>
O=C1NCC2(CCN(CCc3ccccc3)CC2)O1 [FENSPIRIDE]

>  <observedProperty>
Bacterial Biotransformation

>  <result>
Compound NOT metabolized

$$$$
>  <compound>
COc1ccc2[nH]c([S+]([O-])Cc3ncc(C)c(OC)c3C)nc2c1 (stereo not drawn)

>  <observedProperty>
Bacterial Biotransformation

>  <result>
Compound metabolized

$$$$
>  <compound>
Nc1ccc(/N=N/c2ccccc2)c(N)n1

>  <observedProperty>
Bacterial Biotransformation

>  <result>
Compound metabolized

$$$$
>  <compound>
O=c1[nH]c2ccccc2n1C1CCN(CCCC(c2ccc(F)cc2)c2ccc(F)cc2)CC1 [PIMOZIDE]

>  <observedProperty>
Bacterial Biotransformation

>  <result>
Compound metabolized

$$$$
>  <compound>
CO[C@]12C[C@@H](COC(=O)c3cncc(Br)c3)CN(C)[C@@H]1Cc1cn(C)c3cccc2c13

>  <observedProperty>
Bacterial Biotransformation

>  <result>
Compound NOT metabolized

$$$$
>  <compound>
CCOC(=O)[C@H](CCc1ccccc1)N[C@@H](C)C(=O)N1[C@H](C(=O)O)C[C@H]2CCCC[C@@H]21

>  <observedProperty>
Bacterial Biotransformation

>  <result>
Compound NOT metabolized

$$$$
>  <compound>
CCc1nc(N)nc(N)c1-c1ccc(Cl)cc1

>  <observedProperty>
Bacterial Biotransformation

>  <result>
Compound NOT metabolized

$$$$
>  <compound>
O=C(O)COCCN1CCN(C(c2ccccc2)c2ccc(Cl)cc2)CC1 (stereo not drawn)

>  <observedProperty>
Bacterial Biotransformation

>  <result>
Compound metabolized

$$$$
>  <compound>
CC(C)NCC(O)c1ccc(NS(C)(=O)=O)cc1 (stereo not drawn)

>  <observedProperty>
Bacterial Biotransformation

>  <result>
Compound NOT metabolized

$$$$
>  <compound>
Cc1ccc(S(=O)(=O)NC(=O)NN2CC3CCCC3C2)cc1 (stereo not drawn) [GLICLAZIDE]

>  <observedProperty>
Bacterial Biotransformation

>  <result>
Compound metabolized

$$$$
>  <compound>
COc1cc2nc(N3CCN(C(=O)c4ccco4)CC3)nc(N)c2cc1OC

>  <observedProperty>
Bacterial Biotransformation

>  <result>
Compound NOT metabolized

$$$$
>  <compound>
CC(C)NCC(O)COc1ccc(COCCOC(C)C)cc1.CC(C)NCC(O)COc1ccc(COCCOC(C)C)cc1.O=C(O)/C=C/C(=O)O (stereo not drawn) [BISOPROLOL FUMARATE]

>  <observedProperty>
Bacterial Biotransformation

>  <result>
Compound NOT metabolized

$$$$
>  <compound>
CN1CC(=O)N2[C@H](c3ccc4c(c3)OCO4)c3[nH]c4ccccc4c3C[C@@H]2C1=O

>  <observedProperty>
Bacterial Biotransformation

>  <result>
Compound metabolized

$$$$
>  <compound>
CN1CCN(C(=O)O[C@H]2c3nccnc3C(=O)N2c2ccc(Cl)cn2)CC1

>  <observedProperty>
Bacterial Biotransformation

>  <result>
Compound NOT metabolized

$$$$
>  <compound>
CCN(CC)CC#CCOC(=O)C(O)(c1ccccc1)C1CCCCC1.Cl (stereo not drawn) [OXYBUTYNIN CHLORIDE]

>  <observedProperty>
Bacterial Biotransformation

>  <result>
Compound metabolized

$$$$
>  <compound>
Cc1ccnc2c1NC(=O)c1cccnc1N2C1CC1

>  <observedProperty>
Bacterial Biotransformation

>  <result>
Compound NOT metabolized

$$$$
>  <compound>
COC(=O)[C@H]1[C@H]2C[C@@H]3c4[nH]c5cc(OC)ccc5c4CCN3C[C@H]2C[C@@H](OC(=O)c2cc(OC)c(OC)c(OC)c2)[C@@H]1OC

>  <observedProperty>
Bacterial Biotransformation

>  <result>
Compound metabolized

$$$$
>  <compound>
CN1C(=O)CC(C)(c2ccccc2)C1=O (stereo not drawn) [METHSUXIMIDE]

>  <observedProperty>
Bacterial Biotransformation

>  <result>
Compound NOT metabolized

$$$$
